Counter-ions that a name gives are not always drawn.
Test readout: melting point

Value lookup for melting point; key = O=c1[nH]c2c(Cl)cc(Cl)cc2c(=O)n1CCCN1CC=C(c2ccc(Cl)cc2)CC1 (as salt: maleate)
197 to 199 °C

State the recorded melting point for this entry: Cc1ccc(C2=CCN(CCCn3c(=O)[nH]c4cccc(C)c4c3=O)CC2)cc1 (as salt: maleate)
165 to 170 °C

Consider the compound Cc1ccc2c(=O)n(CCCN3CC=C(c4ccc(Cl)cc4)CC3)c(=O)[nH]c2c1 (as salt: maleate) and give its measured melting point.
199 to 201 °C

What value of measured melting point is listed for Cc1cccc2c(=O)n(CCCN3CC=C(c4ccc(Cl)cc4)CC3)c(=O)[nH]c12 (as salt: maleate) ?
215 to 217 °C

Name the recorded melting point for O=c1[nH]c2c(O)cccc2c(=O)n1CCCN1CC=C(c2ccc(Cl)cc2)CC1 (as salt: hydrobromid) .
284 to 286 °C

State recorded melting point for all listed compounds.
1. Cc1cc(Br)c2[nH]c(=O)n(CCCN3CC=C(c4ccc(Cl)cc4)CC3)c(=O)c2c1 (as salt: maleate)
2. O=c1[nH]c2cc(F)ccc2c(=O)n1CCCN1CC=C(c2ccc(Cl)cc2)CC1 (as salt: maleate)

["212 to 214 °C", "197 to 198 °C"]

For each of the compounds below, state melting point.
1. Cc1cccc2[nH]c(=O)n(CCCN3CC=C(c4cccc(C(F)(F)F)c4)CC3)c(=O)c12 (as salt: maleate)
2. O=c1[nH]c2cc([N+](=O)[O-])ccc2c(=O)n1CCCN1CC=C(c2ccc(Cl)cc2)CC1 (as salt: maleate)
3. O=c1[nH]c2ccc(Cl)cc2c(=O)n1CCCN1CC=C(c2ccc(Cl)cc2)CC1 (as salt: maleate)
4. O=c1[nH]c2c(Cl)cccc2c(=O)n1CCCN1CC=C(c2cccc(C(F)(F)F)c2)CC1 (as salt: maleate)

158 to 160 °C
210 to 212 °C
197 to 198 °C
205 to 210 °C

Provide melting point for all items below, preserving their order.
1. Cc1cccc2[nH]c(=O)n(CCCN3CC=C(c4ccc(Cl)cc4)CC3)c(=O)c12 (as salt: maleate)
2. Cc1c(Cl)ccc2c(=O)n(CCCN3CC=C(c4ccc(Cl)cc4)CC3)c(=O)[nH]c12 (as salt: maleate)
3. O=c1[nH]c2cccc(Cl)c2c(=O)n1CCCN1CC=C(c2ccc(Cl)cc2)CC1 (as salt: maleate)
4. O=c1[nH]c2ccc([N+](=O)[O-])cc2c(=O)n1CCCN1CC=C(c2ccc(Cl)cc2)CC1 (as salt: maleate)

1. 175 to 178 °C
2. 208 to 210 °C
3. 190 to 194 °C
4. 205 to 207 °C

I have 2 compounds here; please give me melting point for each one.
1. O=c1[nH]c2cc(Cl)ccc2c(=O)n1CCCN1CC=C(c2ccc(Cl)cc2)CC1 (as salt: maleate)
2. Cc1ccc(C)c2c(=O)n(CCCN3CC=C(c4ccc(Cl)cc4)CC3)c(=O)[nH]c12 (as salt: maleate)

1. 225 to 227 °C
2. 212 to 220 °C
